# Assay Info: 14-day oral gavage toxicokinetic study in rats
# Type: in vivo
# Run Parameters: male, rat, plasma, po, 2 mg/kg, oral 2 mg/kg, Study Day 1, Male
Observed Property: Tmax (h)
Write it as a number; the unit h goes unstated.

Input line: Endpoint output: Tmax of CN1CCN(c2ccc(Nc3ncc4cc5n(c4n3)C3(CCCCC3)CNC5=O)nc2)CC1 [Compound 1] . Value?
Output line: 4

###

# Assay Info: 14-day oral gavage toxicokinetic study in rats
# Format: in vivo
# Run Parameters: male, rat, plasma, po, 30 mg/kg, oral 30 mg/kg, Study Day 1, Male
Observed Property: Tmax (h)
Field: numeric (h). Do not append units.

Input line: # lookup: Tmax of CN1CCN(c2ccc(Nc3ncc4cc5n(c4n3)C3(CCCCC3)CNC5=O)nc2)CC1 [Compound 1]
Output line: 4

###

# Assay Info: 14-day oral gavage toxicokinetic study in rats
# Type: in vivo
# Run Parameters: female, rat, plasma, po, 30 mg/kg, Mean Compound 1 Plasma Concentration, rats, oral 30 mg/kg, Day 1, 8 h, Female
Observed Property: concentration at 8 h (ng/mL)
Entry rule: numbers only, all in ng/mL.

Input line: Look up concentration at 8 h: CN1CCN(c2ccc(Nc3ncc4cc5n(c4n3)C3(CCCCC3)CNC5=O)nc2)CC1
Output line: 2470

###

# Assay Info: Single escalating dose IV infusion pharmacokinetics in healthy volunteers (noncompartmental)
# Type: in vivo, human
# Run Parameters: both sexes, human, plasma, iv, 24 mg/m2, Cohort 3, 24 mg/m^2 IV; mean; read-out: Half-lives averaged (converted)
# Experimental: Forty-five subjects have enrolled in the study. Analysis of plasma concentration versus time data for calculation of standard pharmacokinetic (PK) parameters following intravenous infusion administration was conducted using Phoenix WinNonlin version 6.3 using a nominal infusion duration and scheduled blood sampling times. Random subject numbers were assigned by the bioanalytical laboratory to retain the blind. […]
Observed Property: half-life
Note: state the figure and append the unit.

Input line: Requested field: half-life. Item: CN1CCN(c2ccc(Nc3ncc4cc5n(c4n3)C3(CCCCC3)CNC5=O)nc2)CC1
Output line: 9.88 h

###

# Assay Info: Single escalating dose IV infusion pharmacokinetics in healthy volunteers (noncompartmental)
# Format: in vivo, human
# Run Parameters: both, human, plasma, intravenous, […]2, Cohort 7, […]^2, N = 12; Geo. Mean; read-out: t1/2 (converted)
Observed Property: half-life (h)
Note: unit h is implicit; provide only the numeric part.

Input line: Any idea what half-life was measured for CN1CCN(c2ccc(Nc3ncc4cc5n(c4n3)C3(CCCCC3)CNC5=O)nc2)CC1 [Compound 1] ?
Output line: 14.5

###

# Assay Info: Nonclinical IV and oral pharmacokinetics in dogs
# Format: in vivo
# Run Parameters: dog, plasma, oral 10 mg/kg
Observed Property: bioavailability
Express your answer as a number followed by its unit.

Input line: // bioavailability lookup, key: CN1CCN(c2ccc(Nc3ncc4cc5n(c4n3)C3(CCCCC3)CNC5=O)nc2)CC1 [Compound 1]
Output line: 30.2%

###

# Assay Info: Compound 1 PK dosed Days 1-5 with topotecan
# Type: in vivo, human
# Run Parameters: human, plasma, intravenous, 200 mg/m^2 with Topotecan 0.75 mg/m^2 (Cohort 3), Day 1, Mean; read-out: Cmax
Observed Property: Cmax (ng/mL)
// return numeric value only (unit: ng/mL, not printed)

Input line: # lookup: Cmax of CN1CCN(c2ccc(Nc3ncc4cc5n(c4n3)C3(CCCCC3)CNC5=O)nc2)CC1 [Compound 1]
Output line: 1140

###

# Assay Info: 14-day oral gavage toxicokinetic study in rats
# Assay type: in vivo
# Run Parameters: male, rat, plasma, po, 2 mg/kg, oral 2 mg/kg, Study Day 14, Male; read-out: t½ (converted)
Observed Property: half-life (h)
Supply the numeric figure in h, leaving out any unit text.

Input line: Any idea what half-life was measured for CN1CCN(c2ccc(Nc3ncc4cc5n(c4n3)C3(CCCCC3)CNC5=O)nc2)CC1 [Compound 1] ?
Output line: 4.98

###

# Assay Info: 14-day oral gavage toxicokinetic study in rats
# Type: in vivo
# Run Parameters: male, rat, plasma, po, 15 mg/kg, Mean Compound 1 Plasma Concentration, rats, oral 15 mg/kg, Day 14, 12 h, Male
Observed Property: concentration at 12 h (ng/mL)
Unit ng/mL implied. Number only.

Input line: Param item = CN1CCN(c2ccc(Nc3ncc4cc5n(c4n3)C3(CCCCC3)CNC5=O)nc2)CC1 ; retrieve measured concentration at 12 h.
Output line: 626

###

# Assay Info: 14-day oral gavage toxicokinetic study in rats
# Assay type: in vivo
# Run Parameters: female, rat, plasma, po, 5 mg/kg, oral 5 mg/kg, Study Day 1, Female
Observed Property: Cmax (ng/mL)
Please respond with the number in ng/mL and leave the unit unwritten.

Input line: Which Cmax value is on record for CN1CCN(c2ccc(Nc3ncc4cc5n(c4n3)C3(CCCCC3)CNC5=O)nc2)CC1 [Compound 1] ?
Output line: 528

###

# Assay Info: 14-day oral gavage toxicokinetic study in rats
# Type: in vivo
# Run Parameters: both sexes, rat, plasma, po, 15 mg/kg, oral 15 mg/kg, Study Day 1, Overall
Observed Property: Cmax (ng/mL)
The figure you give is taken to be in ng/mL; do not add the unit.

Input line: Given the entry CN1CCN(c2ccc(Nc3ncc4cc5n(c4n3)C3(CCCCC3)CNC5=O)nc2)CC1 , report its measured Cmax.
Output line: 1490

###

# Assay Info: Nonclinical IV and oral pharmacokinetics in rats
# Assay type: in vivo
# Run Parameters: both sexes, rat, plasma; rats, after IV administration
Observed Property: half-life

Input line: Which half-life is listed for CN1CCN(c2ccc(Nc3ncc4cc5n(c4n3)C3(CCCCC3)CNC5=O)nc2)CC1 ?
Output line: ~4 h

###

# Assay Info: 14-day oral gavage toxicokinetic study in rats
# Type: in vivo
# Run Parameters: female, rat, plasma, po, 5 mg/kg, oral 5 mg/kg, Study Day 1, Female
Observed Property: AUC(0-t) (ng·h/mL)
Answer in ng·h/mL, number only, no unit symbol.

Input line: Given CN1CCN(c2ccc(Nc3ncc4cc5n(c4n3)C3(CCCCC3)CNC5=O)nc2)CC1 , state its recorded AUC(0-t).
Output line: 5340

###

# Assay Info: Compound 1 PK dosed Days 1-5 with topotecan
# Format: in vivo, human
# Run Parameters: human, plasma, intravenous, 200 mg/m^2 with Topotecan […]^2 (Cohort 1), Day 1, Geo. Mean; read-out: AUCinf
Observed Property: AUC(0-inf)
Report field: quantity (unit follows the number).

Input line: I'd like to know its AUC(0-inf). The compound in question is CN1CCN(c2ccc(Nc3ncc4cc5n(c4n3)C3(CCCCC3)CNC5=O)nc2)CC1
Output line: 2120 ng·h/mL

###

# Assay Info: Single escalating dose IV infusion pharmacokinetics in healthy volunteers (noncompartmental)
# Assay type: in vivo, human
# Run Parameters: both sexes, human, plasma, iv, 96 mg/m2, Cohort 5, 96 mg/m^2 IV; mean; read-out: Cmax averaged
Observed Property: Cmax (µg/mL)
Could you give me the number in µg/mL? Just the number is fine.

Input line: Quick one: Cmax for CN1CCN(c2ccc(Nc3ncc4cc5n(c4n3)C3(CCCCC3)CNC5=O)nc2)CC1 ?
Output line: 0.9

###

# Assay Info: Single escalating dose IV infusion pharmacokinetics in healthy volunteers (noncompartmental)
# Format: in vivo, human
# Run Parameters: both sexes, human, plasma, iv, 96 mg/m^2, Cohort 5, 96 mg/m^2 IV; range over subjects; read-out: concentration at 24.5 hours after the start of infusion
# Experimental: Forty-five subjects have enrolled in the study. Analysis of plasma concentration versus time data for calculation of standard pharmacokinetic (PK) parameters following intravenous infusion administration was conducted using Phoenix WinNonlin version 6.3 using a nominal infusion duration and scheduled blood sampling times. Random subject numbers were assigned by the bioanalytical laboratory to retain the blind. […]
Observed Property: concentration at 24.5 h

Input line: Sample CN1CCN(c2ccc(Nc3ncc4cc5n(c4n3)C3(CCCCC3)CNC5=O)nc2)CC1 — what was its concentration at 24.5 h?
Output line: 3.96 to 9.59 ng/mL

###

# Assay Info: Single escalating dose IV infusion pharmacokinetics in healthy volunteers (noncompartmental)
# Format: in vivo, human
# Run Parameters: both, human, plasma, iv, […]2, Cohort 6, […]^2 IV; 0-[…] data; range over subjects; read-out: Half-lives range
Observed Property: half-life

Input line: Which half-life reading was recorded for the molecule CN1CCN(c2ccc(Nc3ncc4cc5n(c4n3)C3(CCCCC3)CNC5=O)nc2)CC1 [Compound 1] ?
Output line: 16.9 to 20.1 h

###

# Assay Info: 14-day oral gavage toxicokinetic study in rats
# Assay type: in vivo
# Run Parameters: both sexes, rat, plasma, po, 5 mg/kg, Mean Compound 1 Plasma Concentration, rats, oral 5 mg/kg, Day 14, 4 h, Overall
Observed Property: concentration at 4 h (ng/mL)
Provide only the numeric value, understood in ng/mL.

Input line: What does the data say about its concentration at 4 h? Entry: CN1CCN(c2ccc(Nc3ncc4cc5n(c4n3)C3(CCCCC3)CNC5=O)nc2)CC1 [Compound 1]
Output line: 430
